- Tested on: HepG2 cells
- experiment: Cytotoxicity in HepG2 cells (intracellular ATP, ATPlite, 48 h)
- Assay type: cell-based, human
- stated conditions: HepG2 cells; IC50 per ratio column head; unit inferred
IC50 listing for selected compounds.
readout label: IC50 (µM)

>>> value("CCN(CC)CCOc1ccc(C(O)(C#CC(O)(c2ccccc2)c2ccc(OCCN(CC)CC)cc2)c2ccccc2)cc1 (stereo not shown)")
3.67
>>> value("O=C(COc1ccccc1)N(Cc1ccc(-c2ccc(CNC3Cc4ccccc4C3)cc2)cc1)C1CCNCC1")
7.8
>>> value("CCCCCCCN1CC[C@@H](CCCc2ccnc3ccc(OC)cc23)[C@@H](CCN)C1")
2.98
>>> value("CC(Cc1ccc(CNC(=O)NCc2ccc(CC(C)NCCc3cccc(Cl)c3)cc2)cc1)NCCc1cccc(Cl)c1 (stereo not shown)")
4.18
